details: buffer; pH 7.4; 6.0 h; 150.0 µM
Hi there, I'd appreciate the recorded solubility kinetic for every entry that follows.
Give bare numbers, in µg/mL.

Sample records with solubility kinetic:
{"Molecule": "NC(=O)C1CCN(c2nc(-c3cccc(C(F)(F)F)c3)cs2)CC1", "Reading unit": "µg/mL", "Reading": 2.41}
{"Molecule": "Nc1nc2c(s1)C(c1ccc(F)cc1F)CC(=O)N2 (stereo not given)", "Reading unit": "µg/mL", "Reading": 23.2}
{"Molecule": "Cc1nc(Sc2nnnn2C)c2c(-c3ccccc3)csc2n1", "Reading unit": "µg/mL", "Reading": 19.4}
{"Molecule": "O=C([C@@H]1CCCN(c2ccc3[nH]c(C4(n5cc(Cl)cn5)CC4)nc3n2)C1)N1CCCC1", "Reading unit": "µg/mL", "Reading": 27.2}
{"Molecule": "O=C(Nc1cccc(OC(F)(F)F)c1)c1cc(-c2ccc[nH]2)n[nH]1", "Reading unit": "µg/mL", "Reading": 10.8}

Consider Cc1ccc(C(=O)N2CCc3sc(C(=O)NC(C)c4ccccc4)cc3C2)cc1 (stereo not given) . Its measured solubility kinetic is 2.09

* * *

Answer each item with its documented solubility kinetic.
conditions: buffer; pH 7.4; 6.0 h; 150.0 µM
Answers are plain numbers, in µg/mL.

Answered cases to consult:
{"Molecule": "COc1ccc(NC(=O)c2cccnc2)cc1S(=O)(=O)Nc1ccc(Br)cc1", "Reading unit": "µg/mL", "solubility kinetic": 33.5}
{"Molecule": "COc1ccc(C2=Nn3c(nnc3-c3ccncc3)SC2)cc1", "Reading unit": "µg/mL", "solubility kinetic": 9.06}

Please give solubility kinetic for each item listed below.
1. COC(=O)[C@H](Cc1ccc(O[S+](=O)([O-])c2cccc3cnccc23)cc1)N[S+](=O)([O-])c1ccc2cnccc2c1
2. COc1ccc(NS(=O)(=O)c2ccc(C)c(C(=O)Nc3ccc4oc(C)nc4c3)c2)cc1
3. COc1cccc(CNC(=O)CCCn2nc(C)c3c(C)n(-c4ccc(C)cc4)nc3c2=O)c1OC
4. Cc1ccc(-n2nc3c(=O)n(CCCC(=O)NCc4ccc(F)cc4)nc(C)c3c2C)cc1
5. COc1ccccc1N1CCN(C2CCCCC2NS(=O)(=O)c2ccccc2)CC1 (stereo not given)

3.21
8.77
2.58
5.86
2.68

The molecule identified as COc1ccc(C(=O)N[C@@H]2CCC[C@@H]2C(=O)N2CCC(Cc3ccccc3)CC2)cc1 registered its solubility kinetic at 17.9

* * *

settings: buffer; pH 7.4; 6.0 h; 150.0 µM
Quantity name: log10 solubility kinetic (log10 of the value in µg/mL)
All values: base-10 log of solubility kinetic in µg/mL.

Below: 3 compounds and their reported log10 solubility kinetic.
{"Compound structure string": "Cc1cc(C)cc(NS(=O)(=O)c2ccc3[nH]cc(C(=O)NCc4ccco4)c(=O)c3c2)c1", "log10 solubility kinetic": 0.46}
{"Compound structure string": "COc1ccc(-n2nc(C)c([C@@H]3C=C[C@@H](NCc4cccc(Cl)c4)C3)c2C)cc1", "log10 solubility kinetic": 1.66}
{"Compound structure string": "Cc1ccc(-c2nnc(N3CCC(C(N)=O)CC3)s2)cc1", "log10 solubility kinetic": 1.16}

// input: 6 compounds below; output: log10 solubility kinetic for each
1. Cc1cc(-c2ccc(C)c(S(=O)(=O)NCC3CCN(Cc4ccc(F)cc4)CC3)c2)on1
2. O=[S+]([O-])(Nc1ccccc1)c1ccc(NCc2ccc(Cl)cc2O)cc1
3. O=C(CCCc1ccc2cccnc2n1)NCc1cc(-c2ccc(F)c(C(F)(F)F)c2)no1
4. NC1CCN(c2nc(-c3ccc(Br)cc3)cs2)CC1
5. COc1cc(NC(=O)c2cc(-c3ccccc3O)no2)cc(OC)c1OC
6. Cc1cccc(S(=O)(=O)Nc2cnccc2C(=O)Nc2nc(-c3ccccc3)cs2)c1

1: 1.61; 2: 0.42; 3: 0.52; 4: 0.95; 5: 0.04; 6: 1.34

Lab note: each compound below needs its log10 solubility kinetic filled in.
1. CC(=O)NCc1ccc(-c2csc(Nc3cccc(C)c3)n2)o1
2. Fc1ccc(CN2CCOC[C@H]2c2ncc(-c3ccc(Cl)s3)[nH]2)cc1

1: 1.47; 2: 0.74

* * *

Provide the reported solubility kinetic of each item.
conditions: buffer; pH 7.4; 6.0 h; 150.0 µM

Go through the list and state solubility kinetic for each entry.
1. CCn1ncc(NC(=O)Cn2ncc3cc(-c4cccc(OC)c4)ccc32)n1
2. O=C1CCc2ccc(OCCCCN3CCN(c4cccc(Cl)c4Cl)CC3)cc2N1
3. O=C(Nc1ncc(Cc2ccc(C(F)(F)F)cc2)s1)c1ccc(-c2cccnc2)o1

1. < 1 µg/mL
2. < 1 µg/mL
3. < 1 µg/mL

Dear colleague, could you please provide solubility kinetic for the compounds listed below?
1. CCOC(=O)C1CCN(C(=O)C(C)(C)NC(=O)Nc2ccc(Cl)cc2Cl)CC1
2. Cc1nn(Cc2ccccc2Cl)c(C)c1CN(C)CC(O)COc1ccc(Cl)cc1 (stereo not given)

37 µg/mL
55.6 µg/mL

Respectfully, I request solubility kinetic for each entry included below.
1. COc1cccc(NC(=O)c2cc(-c3ccc(C)c(C)c3)nc3ccccc23)c1
2. CCOc1ccc(-c2nnc(SCC(=O)NCc3ccccc3Cl)o2)cc1
3. CCOC(=O)c1[nH]c(C)c(CCC(=O)N2CCN(c3cc(C)ccc3C)CC2)c1C

1. < 1 µg/mL
2. < 1 µg/mL
3. 6.25 µg/mL

// input: 7 compounds below; output: solubility kinetic for each
1. CC(C)(C)OC(=O)NC1CCN(c2nc(-c3ccc(Br)cc3)cs2)CC1
2. COc1ccc(OC)c(N2C(=O)C(Cl)=C(N3CCCCC3)C2=O)c1
3. CC(=O)OCCN1C(=O)c2c(C)nc3ccc(S(=O)(=O)N4CCOCC4)cc3c2C1=O
4. CC1=C(C(=O)Nc2ccccc2C)C(c2ccccc2Br)N=C(Nc2nc3ccccc3o2)N1 (stereo not given)
5. COc1ccc(-c2nc3ccccc3c(=O)n2Cc2ccco2)cc1COc1ccc(NC(C)=O)cc1
6. Cn1c(=O)c2cc(C(=O)NCCCN3CCN(c4ccccc4F)CC3)sc2c2ccccc21
7. CCn1cc(CNC(=O)c2cc(-c3ccc(C)cc3)nc3ccc(Br)cc23)c(C)n1

1: 6.48 µg/mL; 2: < 1 µg/mL; 3: < 1 µg/mL; 4: < 1 µg/mL; 5: 2.35 µg/mL; 6: < 1 µg/mL; 7: < 1 µg/mL

* * *

Kindly state solubility kinetic for each of the entries shown.
conditions: buffer; pH 7.4; 6.0 h; 150.0 µM

Below are 7 compounds. Give each one its solubility kinetic.
1. Fc1cc(Nc2nc(-c3ccncc3)nc3ccccc23)ccc1-c1ccncc1
2. COc1ccc2nc(C)cc(Nc3ccc(Cl)c(Cl)c3)c2c1
3. COc1ccc(Nc2nnc(-c3ccc(C)c(S(=O)(=O)NCc4nc5ccccc5[nH]4)c3)c3ccccc23)cc1
4. Cc1cc(N)c2cc(NC(=O)Nc3ccc4nc(C)cc(N)c4c3)ccc2n1.Cl.Cl
5. Cc1ccc(S(=O)(=O)Nc2cnccc2C(=O)Nc2nc(-c3ccc(Oc4ccccc4)cc3)cs2)cc1
6. CCOC(=O)C1CCN(c2ncnc3c2c(-c2ccccc2)cn3-c2ccccc2)CC1
7. COc1cccc(CNc2ccc(S(=O)(=O)Nc3ccccc3)cc2)c1O

< 1 µg/mL
< 1 µg/mL
< 1 µg/mL
< 1 µg/mL
0.918 µg/mL
< 1 µg/mL
< 1 µg/mL

Report solubility kinetic for every entry below.
1. O=C(Nc1ccc2c(N3CCCCC3)ncnc2c1)c1cc(F)cc(F)c1
2. CCOC(=O)c1cc(-c2ccco2)nc2c1c(C)nn2CCC#N
3. O=S(=O)(Nc1nccs1)c1ccc(NCc2ccc(Br)cc2O)cc1
4. CS(=O)(=O)Nc1cccc(-c2nccc(-n3ccnc3)n2)c1
5. O=C(c1ccc2c(c1)OCO2)N1CCC(Cc2nc(-c3cnccn3)no2)CC1
6. CCOC(=O)C1CCN(C(=O)C2(NC(=O)Nc3ccccc3Cl)CCC2)CC1
7. OCc1cccc(-c2cc(-c3cccnc3)c3cncn3c2)c1

< 1 µg/mL
9.9 µg/mL
< 1 µg/mL
> 47 µg/mL
> 39 µg/mL
43.2 µg/mL
18.5 µg/mL

Consider the following items and state reported solubility kinetic for each.
1. CC(=O)c1c(C)[nH]c(C(=O)Nc2ccc(Cl)cc2)c1C
2. c1cc(-c2cc(-c3ccncc3)c3cncn3c2)c2cc[nH]c2c1
3. Cc1sc(NC(=O)Cc2ccc3c(c2)OCO3)nc1-c1ccc2c(c1)CCN2C
4. CC(C)Oc1ccccc1C(=O)Nc1nc(-c2ccccc2)cs1
5. Cc1c(C)n(Cc2ccc(-c3ccccc3C(=O)O)cc2)c2ccc(C(=O)N[C@@H](C)c3ccc([N+](=O)[O-])cc3)cc12
6. O=C(c1ccc2ccccc2c1)N1CCN(c2ccc(O)cc2)CC1
7. CCN(CC)CCNC(=O)C1CCN(c2nn3cc(-c4ccc(F)cc4)nc3s2)CC1

1. 1.96 µg/mL
2. < 1 µg/mL
3. 1.07 µg/mL
4. < 1 µg/mL
5. 44 µg/mL
6. 27.5 µg/mL
7. > 66 µg/mL

Data origin: PubChem BioAssay AID1645848
